biological target: AE1 (band 3) protein in human red blood cells (Homo sapiens); experiment: Inhibition of 36Cl exchange flux at 0°C after equilibration with WW781; assay type: cell-based; settings: read-out: K eqW,EIi; mean ± SEM of two experiments
Sequence (P02730 whole entry): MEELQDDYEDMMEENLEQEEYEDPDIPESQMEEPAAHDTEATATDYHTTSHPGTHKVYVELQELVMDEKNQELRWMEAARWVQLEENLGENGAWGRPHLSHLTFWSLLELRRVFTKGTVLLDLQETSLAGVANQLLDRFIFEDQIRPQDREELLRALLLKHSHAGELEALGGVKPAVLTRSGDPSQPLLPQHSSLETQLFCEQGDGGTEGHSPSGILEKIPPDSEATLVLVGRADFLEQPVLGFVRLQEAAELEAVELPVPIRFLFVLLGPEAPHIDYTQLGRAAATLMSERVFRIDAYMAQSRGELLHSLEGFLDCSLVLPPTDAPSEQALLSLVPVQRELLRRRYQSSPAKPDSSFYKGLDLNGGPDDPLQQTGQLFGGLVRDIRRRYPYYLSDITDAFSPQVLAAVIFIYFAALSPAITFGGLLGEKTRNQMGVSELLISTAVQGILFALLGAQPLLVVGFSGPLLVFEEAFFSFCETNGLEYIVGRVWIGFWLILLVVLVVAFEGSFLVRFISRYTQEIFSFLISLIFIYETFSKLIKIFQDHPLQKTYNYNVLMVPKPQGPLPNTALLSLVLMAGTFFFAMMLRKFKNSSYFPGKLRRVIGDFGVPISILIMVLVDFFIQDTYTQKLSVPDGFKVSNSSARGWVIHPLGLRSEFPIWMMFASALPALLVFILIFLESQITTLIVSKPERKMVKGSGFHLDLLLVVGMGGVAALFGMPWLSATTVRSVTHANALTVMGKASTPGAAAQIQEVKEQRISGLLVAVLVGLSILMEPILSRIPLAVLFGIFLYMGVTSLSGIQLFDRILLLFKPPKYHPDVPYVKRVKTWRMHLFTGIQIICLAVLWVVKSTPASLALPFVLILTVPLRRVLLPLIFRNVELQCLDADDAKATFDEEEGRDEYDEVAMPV
EXPERIMENTAL_READOUT: Ki (nM)
Express your answer in nM, writing the number without its unit.

Query: I am curious: what Ki value has been reported for CCCCN1C(=O)C(C=CC=CC=C2C(=O)N(c3ccc(S(=O)(=O)O)cc3)N=C2C)C(=O)N(CCCC)C1=O ?
Reply: 280

----------
target: AE1 (band 3) protein in human red blood cells (Homo sapiens); assay: Inhibition of 36Cl exchange flux at 0°C after equilibration with WW781; type: cell-based; details: read-out: K eqW; [Cli = o] 600 mM, 0°C, mean ± SEM
EXPERIMENTAL_READOUT: IC50
Field: value (include unit after the number)

Query: I am curious: what IC50 value has been reported for CCCCN1C(=O)C(C=CC=CC=C2C(=O)N(c3ccc(S(=O)(=O)O)cc3)N=C2C)C(=O)N(CCCC)C1=O [WW781] ?
Reply: 143 nM
